Entries and their TGI values follow.
- Test system: COLO 205 colon
- protocol summary: NCI tumour cell line growth inhibition, 48 h

{"columns": ["molecule", "TGI"],
 "data": [
  ["N#CC1c2ccccc2-c2ccccc2N1C(=O)c1ccccc1 (configuration not stated)", "3.67 µM"],
  ["CC(=O)O[C@]12CCCCCCC1C1(O)C(O)CCC[C@H]12 (some centres not stated)", "> 100 µM"],
  ["c1ccc2c(c1)CCCc1cc3ccccc3nc1-2", "> 100 µM"],
  ["COC(=O)c1c(C)oc2ccc(OC(C)=O)cc12", "> 100 µM"],
  ["CC1=CC2=C(C)C3(CC3)[C@@](C)(O)C(=O)C2=C1", "0.584 µM"],
  ["COc1cc(OC)c(CSCC(NC(=O)OCC2c3ccccc3-c3ccccc32)C(=O)O)c(OC)c1 (configuration not stated)", "> 10 µM"],
  ["c1ccc(SCCCC(Sc2ccccc2)Sc2ccccc2)cc1", "> 100 µM"],
  ["O=C1[C@H]2C(c3ccccc3)=NN(C(=O)c3ccccc3)[C@H]2C(=O)N1c1ccccc1", "> 100 µM"],
  ["O=C1c2ccccc2-c2cc3ccccc3c(=O)n21", "> 100 µM"],
  ["CC(C)(C)OC(=O)NC(Cc1ccccc1)C(=O)N[C@H]1c2ccsc2/C(=N/O)[C@H]1O (some centres not stated)", "> 100 µM"],
  ["C=C1C(=O)O[C@H]2C1[C@H](OC(=O)/C(C)=C\\COC(C)=O)C[C@]1(CO1)[C@@H]1[C@H](O)[C@H]3O[C@@]3(C)[C@@H]12 (some centres not stated)", "21.9 µM"],
  ["c1ccc2c(c1)nc(NCCN1CCNCC1)c1c3ccccc3[nH]c21", "1.87 µM"],
  ["CCCCN(CCCC)C(=NCc1ccccc1)NC#N", "33 µM"],
  ["C=C[C@]1(C)CC[C@]2(C)C(CC[C@@]3(C)C2C[C@H](O)[C@H](O)[C@@]3(C)O)C1 (some centres not stated)", "> 100 µM"],
  ["O=C1OC(c2ccc(O)cc2)(c2ccc(O)cc2)c2cccc3cccc1c23", "18.4 µM"],
  ["CCCC/C(=N\\N=C(N)N)c1ccc(F)cc1", "3.41 µM"],
  ["Cc1ccc(-c2cc(-c3ccc(Cl)cc3)nc(/N=C3\\C(=O)N(CN4CCCCC4)c4ccc(Cl)cc43)n2)cc1", "80.5 µM"],
  ["CC(C)c1ccc(/C=C(\\NC(=O)c2ccccc2)c2nc3ccccc3[nH]2)cc1", "> 100 µM"],
  ["Cc1ccc(S(=O)(=O)C(C#N)c2nc3ccccc3nc2-n2cccn2)cc1 (configuration not stated)", "> 100 µM"],
  ["COC(=O)C(C)N1C(=O)c2ccccc2I1OC(C)=O (configuration not stated)", "35 µM"],
  ["O=C(CCCCCCCCC(=O)OCC1OC(n2cnc3c(=O)[nH]cnc32)C(O)C1O)OCC1OC(n2cnc3c(=O)[nH]cnc32)C(O)C1O (configuration not stated)", "> 100 µM"],
  ["Cc1ncc([N+](=O)[O-])n1CCN=[N+]=[N-]", "> 100 µM"],
  ["CCOc1ccc(NC(=O)c2c(N/N=C/c3ccc(OC)cc3)nc(=O)[nH]c2C)cc1", "> 100 µM"],
  ["[N-]=[N+]=NC1(c2ccccc2)C(=O)Nc2ccccc2C1=O (configuration not stated)", "> 100 µM"],
  ["O=c1[nH]c(=O)n(C2CC(O)C(CO)O2)cc1C#Cc1ccc(C(F)(F)F)cc1 (configuration not stated)", "> 100 µM"],
  ["COc1ccc(N2C(=O)C3c4[nH]c5ccc(C)cc5c4C4CCC(C(C)C)CC4C3C2=O)cc1 (configuration not stated)", "> 100 µM"],
  ["CCOC(=O)C1C(c2cc(OC)c(O)c(OC)c2)c2cc3c(cc2OC1(C)O)OCO3 (configuration not stated)", "> 100 µM"],
  ["COc1cn2c(cc1=O)COc1ccc(-c3ccccc3)cc1-2", "> 100 µM"],
  ["CC1=C(C#N)C(N)=C2C(C)=C(C#N)C(N)=C12", "> 100 µM"],
  ["C#CC(C)(C)Oc1cc(OC)c2c(=O)c3ccccc3n(C)c2c1", "33.7 µM"],
  ["C=CCc1c(O)c2ccccc2[nH]c1=O", "> 100 µM"],
  ["CC1=NN(C(=O)CC(=O)Nc2cccc(Cl)c2)C(=O)C1N=Nc1ccc(S(N)(=O)=O)cc1 (configuration not stated)", "> 100 µM"],
  ["COc1cc2oc3ccccc3c(=O)c2cc1CSc1ccccc1N", "> 95.6 µM"],
  ["CN(C)c1ccc(-c2nc(-c3cc4c(ccc5ccccc54)oc3=O)cs2)cc1", "> 100 µM"],
  ["Cc1ccc2c(c1)c(=O)c1c(NCCN(C)C)ccc3nnn2c31", "9.72 µM"],
  ["Cc1cc(S(=O)(=O)Nc2n[nH]c(Nc3ccccc3)n2)c(S)cc1Cl", "> 10 µM"],
  ["CCOC(=O)C1C/C(C)=C(/C)SCCCS1 (configuration not stated)", "> 100 µM"]
]}

The measurements presented in this section are drawn from PubChem BioAssay (NCI).
